- target_or_system: T1, RHPN1, Q8TCX5
- T1 sequence (Q8TCX5 508-602, limits assumed, looked up): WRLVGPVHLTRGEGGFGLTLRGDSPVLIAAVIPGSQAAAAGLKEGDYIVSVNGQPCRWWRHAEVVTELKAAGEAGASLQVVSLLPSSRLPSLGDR
- procedure_details: holdup assay
- Parameters: key: below the threshold = too weak to quantify, mostly under pKd 3.1 to 4
- details: plain residues with an end cap or a label only (N-terminal biotin on a linker: ado-ado)
parameter: pKd
Numbers only.

binder	pKd
NIAESLESLV [PTPRZ1, P23471]	4.6
SLNANEVEWF [RNF130, Q86XS8]	3.5

API: the following record is the query input.
Ask | Reported pKd, binder RDPPAEWTRV [PTPN18, Q99952] : ____
Reply | 4.35

// provenance: paper PMC9482650
